These measurements were taken from patent US20230134571A1.

Biological target: HIV Env, isolate A07412M1.vrc12 (HIV)
Experiment: cell-based or functional assay
Overview of reported IC80 (µg/ml) with constrains across a group of binders:

binder	IC80 (µg/ml) with constrains [µg/mL]
ePGDM13 (antibody, V domains shown) VH: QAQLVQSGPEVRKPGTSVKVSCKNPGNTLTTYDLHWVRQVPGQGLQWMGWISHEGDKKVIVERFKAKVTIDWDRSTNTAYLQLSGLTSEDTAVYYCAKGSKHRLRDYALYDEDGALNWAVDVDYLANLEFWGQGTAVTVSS VL: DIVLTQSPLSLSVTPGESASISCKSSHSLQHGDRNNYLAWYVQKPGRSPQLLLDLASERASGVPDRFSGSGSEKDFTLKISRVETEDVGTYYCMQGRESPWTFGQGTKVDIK	0.118
ePGDM9 (antibody, V domains shown) VH: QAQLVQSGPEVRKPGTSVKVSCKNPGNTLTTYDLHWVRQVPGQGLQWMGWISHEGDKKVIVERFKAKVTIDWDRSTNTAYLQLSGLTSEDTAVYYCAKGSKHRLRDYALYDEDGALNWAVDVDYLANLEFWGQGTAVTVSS VL: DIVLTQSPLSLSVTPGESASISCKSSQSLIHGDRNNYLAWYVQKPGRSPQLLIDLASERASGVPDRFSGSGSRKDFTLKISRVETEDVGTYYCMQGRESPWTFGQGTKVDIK	0.103
PGDM1400 (antibody, V domains shown) VH: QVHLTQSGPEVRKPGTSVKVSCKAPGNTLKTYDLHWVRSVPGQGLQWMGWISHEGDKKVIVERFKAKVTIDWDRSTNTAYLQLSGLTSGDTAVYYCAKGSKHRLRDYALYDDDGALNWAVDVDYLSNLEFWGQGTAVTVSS VL: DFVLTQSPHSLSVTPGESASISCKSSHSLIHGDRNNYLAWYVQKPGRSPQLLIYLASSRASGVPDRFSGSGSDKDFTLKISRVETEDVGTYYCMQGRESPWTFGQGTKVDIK	0.115
ePGDM5 (antibody, V domains shown) VH: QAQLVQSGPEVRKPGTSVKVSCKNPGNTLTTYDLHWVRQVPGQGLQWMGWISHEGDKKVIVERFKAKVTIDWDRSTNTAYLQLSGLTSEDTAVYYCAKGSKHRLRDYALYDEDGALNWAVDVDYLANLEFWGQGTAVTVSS VL: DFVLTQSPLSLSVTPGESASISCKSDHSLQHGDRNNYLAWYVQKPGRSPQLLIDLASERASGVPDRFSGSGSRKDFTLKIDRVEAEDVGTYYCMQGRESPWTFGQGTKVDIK	0.035
